Item-by-item account of pEC50
# system: PPAR gamma (Homo sapiens, UniProt P37231)
# Construct: expressed in transfected cells; host or cells: CV-1 cells
# Sequence (P37231 238-503 limits assumed): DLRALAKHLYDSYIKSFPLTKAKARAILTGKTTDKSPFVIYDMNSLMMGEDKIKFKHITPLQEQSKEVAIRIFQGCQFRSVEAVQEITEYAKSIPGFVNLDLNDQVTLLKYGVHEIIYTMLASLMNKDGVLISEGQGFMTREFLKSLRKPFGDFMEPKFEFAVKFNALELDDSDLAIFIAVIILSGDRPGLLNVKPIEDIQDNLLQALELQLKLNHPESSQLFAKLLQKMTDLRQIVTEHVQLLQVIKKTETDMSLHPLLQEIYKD
# experimental.details: Transient transfection (transactivation) assay in CV-1 cells, GAL4-PPAR chimera, luciferase reporter
# Assay type: cell-based
pEC50: −log10 of the molar value.

Answered cases to consult:
molecule	property.measured	result
COc1ccc(N2CCN(S(=O)(=O)c3cccc(CC(=O)O)c3)CC2)cc1OC [Example 127]	pEC50	< 4.00
Cc1cc(CC(=O)O)cc(S(=O)(=O)N2CCN(c3ncc(C(F)(F)F)cc3Cl)CC2)c1 [Example 22]	pEC50	> 5.30
Cc1ccc(S(=O)(=O)N2CCN(c3ncc(Br)cn3)CC2)cc1CC(=O)O [Example 58]	pEC50	> 5.30

INPUT: # lookup: pEC50 of Cc1ccc(S(=O)(=O)N2CCN(c3ncc(C(F)(F)F)cc3Cl)CC2)cc1CC(=O)O [Example 54]
OUTPUT: > 5.30

INPUT: Tell me the measured pEC50 of O=C(O)Cc1cccc(S(=O)(=O)N2CCN(C(c3ccc(F)cc3)c3ccc(F)cc3)CC2)c1 [Example 138] , please.
OUTPUT: 4.00 to 5.30

INPUT: Query: pEC50; subject: COc1ccc(S(=O)(=O)N2CCN(c3ccc(C(F)(F)F)cn3)CC2C)cc1CC(=O)O (centres unmarked) [Example 77]
OUTPUT: 4.00 to 5.30

INPUT: Entry Cc1ccc(N2CCN(S(=O)(=O)c3cc(CC(=O)O)ccc3C)CC2)cc1C [Example 150] : reported pEC50 = ?
OUTPUT: 4.00 to 5.30

INPUT: Can you share its pEC50? I mean this molecule: Cc1ccc(S(=O)(=O)N2C[C@@H]3C[C@H]2CN3c2ccc(F)cc2)cc1CC(=O)O [Example 11]
OUTPUT: < 4.00

----------
# system: UniProt Q07869
# Sequence (Q07869 239-466 limits assumed): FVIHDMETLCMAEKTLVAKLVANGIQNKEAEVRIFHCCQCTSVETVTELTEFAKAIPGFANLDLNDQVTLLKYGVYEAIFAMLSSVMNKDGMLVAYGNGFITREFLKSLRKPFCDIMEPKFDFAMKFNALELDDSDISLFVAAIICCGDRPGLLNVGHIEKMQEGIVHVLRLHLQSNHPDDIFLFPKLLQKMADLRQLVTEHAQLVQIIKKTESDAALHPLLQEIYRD
# experimental.details: Transient transfection (transactivation) assay in CV-1 cells, GAL4-PPAR chimera, luciferase reporter
pEC50: −log10 of the molar value.
property.measured: pEC50

Some solved cases for reference:
compound	system	property.measured	result
COc1ccc(N2CCN(S(=O)(=O)c3cc(CC(=O)O)ccc3C)CC2)cc1	UniProt Q07869	pEC50	< 4.00
C[C@@H]1CN(c2ccc(C(F)(F)F)cn2)C[C@H](C)N1S(=O)(=O)c1ccc(F)c(CC(=O)O)c1F	UniProt Q07869	pEC50	< 4.00

INPUT: Can you look up the measured pEC50 of Cc1cc(CC(=O)O)cc(S(=O)(=O)N2CCN(c3ccc(OC(F)(F)F)cc3)C[C@@H]2C)c1 for me?
OUTPUT: 4.00 to 5.30

INPUT: Requested field: pEC50. Item: O=C(O)Cc1cccc(S(=O)(=O)N2CCN(c3ccc(C(F)(F)F)cn3)CC2)c1
OUTPUT: 4.00 to 5.30

INPUT: Dear colleague, I am looking for the recorded pEC50 of the following compound: COc1ccc(CC(=O)O)cc1S(=O)(=O)N1CCN(c2ccc(C(F)(F)F)cc2)CC1
OUTPUT: < 4.00

INPUT: Fill blank: measured pEC50 of the compound O=C(O)Cc1cc(S(=O)(=O)N2CCN(c3ccc(C(F)(F)F)cn3)CC2)ccc1O is ____.
OUTPUT: 4.00 to 5.30

INPUT: # pEC50 lookup, item Cc1ccc(S(=O)(=O)N2CCCC(c3ccc(C(F)(F)F)cc3)C2)cc1CC(=O)O (stereo not shown)
OUTPUT: 4.00 to 5.30

INPUT: Fill blank: measured pEC50 of the compound COc1ccc(N2CCN(S(=O)(=O)c3cccc(CC(=O)O)c3)CC2)cc1 is ____.
OUTPUT: < 4.00

INPUT: Param item = COC(=O)[C@@H]1CN(c2ccc(C(F)(F)F)cn2)CCN1S(=O)(=O)c1ccc(C)c(CC(=O)O)c1 ; retrieve measured pEC50.
OUTPUT: < 4.00

INPUT: I'd like to know its pEC50. The compound in question is O=C(O)Cc1cccc(S(=O)(=O)N2CCN(CCc3ccccc3)CC2)c1
OUTPUT: < 4.00

INPUT: For the compound shown here, Cc1ccc(S(=O)(=O)N2CCC(c3ccc(Cl)c(Cl)c3)CC2)cc1CC(=O)O , give the reported pEC50.
OUTPUT: < 4.00

INPUT: Requested field: pEC50. Item: Cc1ccc(CC(=O)O)cc1S(=O)(=O)N1CCC(c2ccc(Cl)cc2)CC1
OUTPUT: < 4.00

INPUT: Fill blank: measured pEC50 of the compound CN(C)Cc1cc(CC(=O)O)cc(S(=O)(=O)N2CCN(c3ccc(C(F)(F)F)cc3)CC2)c1 is ____.
OUTPUT: < 4.00

INPUT: Quick check: pEC50 of Cc1cc(CC(=O)O)cc(S(=O)(=O)N2CCN(c3ccc(C(F)(F)F)cn3)[C@@H](C)[C@H]2C)c1 (mixture of isomers) ?
OUTPUT: < 4.00

INPUT: Request the reported pEC50 associated with Cc1ccc(S(=O)(=O)N2CCN(c3ccc(C(F)(F)F)cn3)CC2(C)C)cc1CC(=O)O
OUTPUT: < 4.00

INPUT: Endpoint output: pEC50 of O=C(O)Cc1cccc(S(=O)(=O)N2CCN(C/C=C/c3ccccc3)CC2)c1 . Value?
OUTPUT: 4.00 to 5.30
